// provenance: patent US20220356230A1

- subject-of-test: T1, MERS-CoV (SARS-CoV-2) Spike Protein S2 (aa 726-1296, His Tag) (Sino 40070-[change]) (MERS-CoV, UniProt K9N5Q8 726-1296)
- T1 sequence: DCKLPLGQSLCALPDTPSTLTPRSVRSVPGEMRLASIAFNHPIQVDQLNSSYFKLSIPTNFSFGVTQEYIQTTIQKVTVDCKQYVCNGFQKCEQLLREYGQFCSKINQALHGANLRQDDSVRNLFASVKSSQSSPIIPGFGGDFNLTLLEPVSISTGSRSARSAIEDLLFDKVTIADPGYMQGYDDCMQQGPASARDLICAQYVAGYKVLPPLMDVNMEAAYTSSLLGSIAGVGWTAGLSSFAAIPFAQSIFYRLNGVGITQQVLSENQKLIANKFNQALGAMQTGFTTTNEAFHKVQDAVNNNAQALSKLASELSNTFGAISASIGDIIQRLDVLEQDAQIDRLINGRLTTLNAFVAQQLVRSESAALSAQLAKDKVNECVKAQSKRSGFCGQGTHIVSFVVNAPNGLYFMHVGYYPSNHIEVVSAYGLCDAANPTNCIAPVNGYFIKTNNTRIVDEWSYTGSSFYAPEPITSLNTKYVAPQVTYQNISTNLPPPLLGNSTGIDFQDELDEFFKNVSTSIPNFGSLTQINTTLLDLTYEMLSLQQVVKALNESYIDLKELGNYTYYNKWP
- experiment: Luminex bead binding, antigen on microspheres, antibody supernatant

binder	unit-annotation	MFI
mAb10957 (antibody, V domains shown) VH: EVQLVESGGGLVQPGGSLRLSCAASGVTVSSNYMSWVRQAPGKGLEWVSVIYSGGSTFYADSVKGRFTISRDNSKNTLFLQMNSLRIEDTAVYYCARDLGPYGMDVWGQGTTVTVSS VL: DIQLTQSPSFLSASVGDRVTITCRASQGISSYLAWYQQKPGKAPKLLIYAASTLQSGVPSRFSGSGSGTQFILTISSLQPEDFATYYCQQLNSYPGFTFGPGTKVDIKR	MFI	18
